# ASSAY_PROCEDURE: PK study of P-S after topical
# Format: in vivo, rat
# SETUP_CONDITIONS: LEW/crlBR, rat, blood, po, 50 mg/kg
READOUT: Tmax (h)

(I) CSc1ccc(/C=C2/C(C)=C(CC(=O)O)c3cc(F)ccc32)cc1 [S.sulfide, sulindac sulfide]
(II) CC1=C(CC(=O)O)c2cc(F)ccc2/C1=C\c1ccc([S+](C)[O-])cc1 (centres unmarked) [Sulindac, sulindac, reference compound]
## Task Please indicate which item has the smaller measured Tmax: I versus II # reply format: chosen label
## Result II

* * *

# ASSAY_PROCEDURE: PK study of P-S after topical
# Assay type: in vivo, rat
# SETUP_CONDITIONS: LEW/crlBR, rat, muscle, po, 50 mg/kg
READOUT: Tmax (h)

>>> meas_value("CSc1ccc(/C=C2/C(C)=C(CC(=O)O)c3cc(F)ccc32)cc1 [S.sulfide, sulindac sulfide]")
8
>>> meas_value("CC1=C(CC(=O)O)c2cc(F)ccc2/C1=C\\c1ccc([S+](C)[O-])cc1 (centres unmarked) [Sulindac, sulindac, reference compound]")
8
